Reference source: the antibiotic and cytotoxicity screens of Wong et al. (2023)

Tested on: HepG2
Test: cytotoxicity call (relative viability < 0.9)
Conditions: 10 µM
Screen size: about 39,000 compounds; about 3,300 (8.5%) were called active. The list comes from a sample in which actives are over-represented; it also holds close analogues and randomly drawn compounds.
Measure: cytotoxicity call

INSERT INTO assay_data (mol, target_desc, measure, reported_measurement) VALUES
  ('Cc1ccc(S(=O)(=O)Nc2ccc3c(c2)C(=O)N([C@H](C)CO)C[C@H](C)[C@@H](CN(C)C(=O)Nc2ccc(C(F)(F)F)cc2)OCCCC[C@H](C)O3)cc1', 'HepG2', 'cytotoxicity call', 'inactive'),
  ('Cc1ccc(S(=O)(=O)Nc2ccc3c(c2)C(=O)N([C@H](C)CO)C[C@H](C)[C@@H](CN(C)C(=O)Nc2ccc(C(F)(F)F)cc2)OCCCC[C@@H](C)O3)cc1', 'HepG2', 'cytotoxicity call', 'inactive'),
  ('Cc1noc(C)c1NC(=O)Nc1ccc2c(c1)C(=O)N([C@H](C)CO)C[C@H](C)[C@H](CN(C)C(=O)c1ccccc1)OCCCC[C@@H](C)O2', 'HepG2', 'cytotoxicity call', 'inactive');
